Compiled record: IC50 values for UniProt P11387 across several sources.
Sequence (P11387 whole entry): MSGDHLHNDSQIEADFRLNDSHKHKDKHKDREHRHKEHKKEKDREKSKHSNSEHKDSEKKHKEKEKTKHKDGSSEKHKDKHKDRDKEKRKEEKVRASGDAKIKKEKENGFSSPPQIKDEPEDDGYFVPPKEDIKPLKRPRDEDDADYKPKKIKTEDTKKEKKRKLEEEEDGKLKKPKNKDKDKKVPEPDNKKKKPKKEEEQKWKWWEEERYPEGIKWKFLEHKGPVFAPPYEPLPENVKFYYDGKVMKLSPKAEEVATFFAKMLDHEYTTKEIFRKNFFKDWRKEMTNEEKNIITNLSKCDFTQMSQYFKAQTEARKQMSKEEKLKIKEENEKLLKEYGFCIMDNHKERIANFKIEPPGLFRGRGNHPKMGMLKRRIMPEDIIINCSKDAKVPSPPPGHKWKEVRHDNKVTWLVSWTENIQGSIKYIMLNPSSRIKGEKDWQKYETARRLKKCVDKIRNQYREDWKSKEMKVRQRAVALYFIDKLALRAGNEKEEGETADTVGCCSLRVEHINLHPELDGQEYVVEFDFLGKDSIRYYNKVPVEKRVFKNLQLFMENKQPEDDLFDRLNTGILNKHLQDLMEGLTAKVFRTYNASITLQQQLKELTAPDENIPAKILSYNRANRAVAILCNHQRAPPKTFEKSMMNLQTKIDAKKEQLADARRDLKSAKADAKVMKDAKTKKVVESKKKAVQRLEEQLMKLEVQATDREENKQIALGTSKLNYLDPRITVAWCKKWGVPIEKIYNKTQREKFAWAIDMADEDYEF
Reply with just the number (in µM).

Example molecules with recorded IC50:
                                   molecule   val
0  CCNC(=S)NNC(=O)c1cc2c([nH]c3ccccc32)c(-c2cccc(O)c2)n1  28.3
1  COc1ccc2c(c1OS(=O)(=O)c1c(F)c(F)cc(F)c1F)CN1CCc3cc4c(cc3C1C2)OCO4 (centres undefined)  1.05

Item: `O=C(Nc1ccccc1)NN1C(=O)c2c(c3c4cccc(O)c4n([C@H]4O[C@H](CO)[C@@H](O)[C@H](O)[C@H]4O)c3c3[nH]c4c(O)cccc4c23)C1=O` | System: UniProt P11387 | IC50: 0.25

Item: `Cc1ccc(NC(=S)NNC(=O)c2cc3c([nH]c4ccccc43)c(-c3cccc(O)c3)n2)cc1` | System: UniProt P11387 | IC50: 28.1
